System: TO-N3-2 (biotin conjugate)
assayOverview: pull-down binding Z-score (relative to library population); higher = stronger binding
conditionLabel: RNA library: Library-2
Tag: t if measured pull-down binding Z-score is not below -0.04, f if it is.

Threshold query (pull-down binding Z-score >= -0.04) on `CUUCACAUAUGUAUUGUUCUUUUUACCCUCCAGAUGAGGAUGAAGAAGAAGGUGAUUGUGAAG`
f

Exam item: decide whether the reported pull-down binding Z-score for GAUGCUGUCUAUUCUAAAGGUAC [hsa-mir-101-1] is at least -0.04.
t

Has GGAUUUCUGGACAUUUGGACAUAUAAUGCAGAAUUGUUAGUUCUACUGGAAAAUGAAAGGACUCUGGAUUUCC [IAV_invivo_HA_4_Motif_17+IAV_invivo_HA_4_Motif_17] a recorded pull-down binding Z-score greater than or equal to -0.04?
t

Quick check: does AUCUUCCUGACCUGGUAAUAAUUAGGUGAGAAGGAU [hsa-mir-8069-2_8069-1] have pull-down binding Z-score greater than or equal to -0.04?
f

Could you verify whether the entry GAUUAUUGUAAGCAGGAUCCAUUCAAUAAUC [hsa-mir-5188] shows pull-down binding Z-score of no less than -0.04?
f

Could you verify whether the entry GGCAUCUAGCACAGGCGGUAGAUGCU [hsa-mir-4486] shows pull-down binding Z-score of no less than -0.04?
f

Item `AUAUAACUUCUAAAGAAACUUUGUAU` with pull-down binding Z-score of -0.04 or above?
f

Assess whether reported pull-down binding Z-score for GUGUCUGGCCCCAGCAGCCCAGACU [hsa-mir-6751] sits at -0.04 or higher.
t

Decide: is the reported value of pull-down binding Z-score for AGUUGUGAAUUCUCAAAACACCU [hsa-mir-660] equal to or greater than -0.04?
f

Does UGCUGUUGCUGUGAAAGCUGA [hsa-mir-6823] have a reported pull-down binding Z-score of at least -0.04?
t

Assess whether reported pull-down binding Z-score for AUGGUAAGUGCGAUACUUACCUG [U1snRNP5ss-24] sits at -0.04 or higher.
t

Is pull-down binding Z-score for CCUCGAAGCUGCCUUUAGAAAUGAGG [hsa-mir-4496] at or above -0.04?
t

Confirm if pull-down binding Z-score reported for the sequence UUUCUGUUGUCUGAAAGAAAAGAAC [hsa-mir-523] is -0.04 or above.
t

Identify whether the reported pull-down binding Z-score of the following sequence is -0.04 or greater: AAAUAAGUACGAUACUUACCUG [U1snRNP5ss-3]
t

Check the entry `GUUGAAGUUGUUGAUAAGUACUUUGAUUGUUACGAUGGUGGCUGUAUUAAUGCUAACCAAGUCAUCGUCAACAACCUAGACAAAUCAGCUGGUUUUCCAUUUAAU` : does pull-down binding Z-score equal or exceed -0.04?
t

Check the entry CCAAAUUUCAUGCG [hsa-mir-4454] : does pull-down binding Z-score equal or exceed -0.04?
f

Hi, just wondering whether GGAAUUGCAAUGUCGAUAGAUAUCCUGCUAAUUCC [DMSMaPseq_invitro_SARS-CoV-2_Motif_342] shows pull-down binding Z-score of -0.04 or higher.
f

Evaluate CGCUGCCUGGAAUUAACCCCGCUGUG [hsa-mir-636] : pull-down binding Z-score at minimum -0.04?
t

Quick check, pull-down binding Z-score >= -0.04? UUCUCGGUUGGCCGCAGACUCGUACAAGAA [hsa-mir-219b]
t

Could you verify whether the entry CCAUACAAUAUUUGG [hsa-mir-1302-1] shows pull-down binding Z-score of no less than -0.04?
f

State whether the measured pull-down binding Z-score reaches -0.04, counting equality as reaching it, for `UGCUUUGGUGUAAAGAUGGCCAUGUAGAAACAUUUUACCCAAAAUUACAAUCUAGUCAAGCGUGGCAACCGGGUGUUGCUAUGCCUAAUCUUUACAAAAUGCA`
t

Does the reported pull-down binding Z-score for AUAAUACGGAUUACGUUGUUA [hsa-mir-137] fall at or above the -0.04 mark?
t

Form field: pull-down binding Z-score at least -0.04? Entry: CUGAACUGGGCUGGGUUGAGCUGGGCUGGGCUGAGUUGAG [hsa-mir-4538]
t

API: above_or_equal(metric=pull-down binding Z-score, cutoff=-0.04) for item UAGUGUUACCACAGAAAUUCUACCAGUGUCUAUGACCAAGACAUCAGUAGAUUGUACAAUGUACAUUUGUGGUGAUUCAACUG [DMSMaPseq_invitro_SARS-CoV-2_Multi_72_ComplexLevel_1]
f

====

System: TO-N3-2 (biotin conjugate)
assayOverview: pull-down binding Z-score (relative to library population); higher = stronger binding
conditionLabel: RNA library: Library-2
measureName: pull-down binding Z-score
Just the number, please, no unit attached.

The sequence identified as `UAGGUGUUUUAAUGUCUAAUUUAGGCAUGCCUUCUUACUGUACUGGUUACAGAGAAGGCUAUUUGAACUCUACUAAUGUCACUAUUGCAACCUA` registered its pull-down binding Z-score at -0.12

Reported pull-down binding Z-score ( GGGAGUGGUUCCAUCACGCCUCCUCAC [hsa-mir-483] ) = 0.658

For reference, reported pull-down binding Z-score for UACUUUACUCAGAGUA [SHAPE_invitro_SARS-CoV-2_Motif_368] stands at -1.64

Please fill in: pull-down binding Z-score reported for CUGUGCUGUCUCUGAGCACCG [hsa-mir-6827] = 0.586

The measured pull-down binding Z-score associated with CUGGGAAGGGAGCUGUCCGGCUCCCCAG [hsa-mir-3155b] reads -0.136

Per the records, this sequence ( UCUGUUUGUUUUCUCUUAAACA [hsa-mir-519d] ) has pull-down binding Z-score equal to -0.847

Summary for this sequence, ACCAUAGUCAUAAGUUAGGAGAUGUUAGAGCUGUGAGU [hsa-mir-4286] : pull-down binding Z-score is 0.807

Per the records, this sequence ( GUGCUAAUGACCCUGUGGGUUUUACAC [SHAPE_invivo_SARS-CoV-2_Motif_252] ) has pull-down binding Z-score equal to -0.465

So, AUUGAGUUACCUUUCUGACUUUCCCACU [hsa-mir-28] ? Its pull-down binding Z-score was -0.279

pull-down binding Z-score reported for this sequence CACUUUCUGCUCUCUGGUGAAAGUG [hsa-mir-371a] : -0.309

pull-down binding Z-score recorded for this sequence, `ACCUUGAAGGAAAACAGGGU` , is -0.135

Reported pull-down binding Z-score of GCCACUAGUCUCUAGUCAGUGUGUUAAUCUUACAACCAGAACUCAAUUACCCCCUGCAUACACUAAUUCUUUCACACGUGGU [SHAPE_invivo_SARS-CoV-2_Motif_403] : 0.688

Reported pull-down binding Z-score for CUGGGGUUGGAAUGUGACCCCA [hsa-mir-4654] was 0.687

Just so you know, measured pull-down binding Z-score for UUUCUGUUGUCUAAAAGAAGAGAAA [hsa-mir-518a-2] came out at -0.273

pull-down binding Z-score recorded for this sequence, UGCUGGUGCUAGAGAGGAAAGCA [hsa-mir-4748] , is 2.22

Item: CUGCAGAGACGAGGCCUGUAG [hsa-mir-5682] | pull-down binding Z-score: 0.886

pull-down binding Z-score measured on `UGUUGGCAUCAUUCUAUUGGAUUUGAUUACGUCUAUAAUCCGUUUAUGAUUGAUGUUCAACA` = -0.625

Record `GUACUUGGUAGUUUAGCUGCCACAGUAC` , field pull-down binding Z-score: -0.818

The recorded pull-down binding Z-score for CUCUGAUGUAAUUAGGU [hsa-mir-563] is -0.397

Sure, the documented pull-down binding Z-score for UCGCUUGCAAGUUGGAUUCAGAAUGAGUUUAACAAGGCAUGCGA [IAV_invivo_PA_3_Motif_18+IAV_invivo_PA_3_Motif_18] is -0.838

So for GGAAGGGCGCCUGUGCUUCGUCC [hsa-mir-572] , the logged pull-down binding Z-score turned out to be 0.767

Kindly note the recorded pull-down binding Z-score for GAACUAACUAACCAGAACUAUUUUGUUC [hsa-mir-4652] , which is -0.742

Form: sequence = ACAUACUAGGACCUCUUUCUGCUCAAACUGGAAUUGCCGUUUUAGAUAUGU [DMSMaPseq_invitro_SARS-CoV-2_Motif_193] ; pull-down binding Z-score = -0.421

pull-down binding Z-score in this record for CCCCAGGGAUGCAAAUAAGGGG [IAV_invivo_PB1_2_Motif_14+IAV_invivo_PB1_2_Motif_14] : 0.241

AGAUGAAAUGCCUUUGAUUU [hsa-mir-3658] yielded pull-down binding Z-score of -0.505

Field pull-down binding Z-score (entry GAUCUAAAACCAGUC [DMSMaPseq_invitro_SARS-CoV-2_Motif_121] ) reads -0.546

GET /value?item= CAGAGUGUGCAUGGCAGGCU [hsa-mir-7156] &field=pull-down binding Z-score returns 0.86
